Documented TGI across a set of molecules
- Test system: MDA-N
- Assay Overview: NCI tumour cell line growth inhibition, 48 h

// known answers, use as guide
{"columns": ["Molecule", "Data Value"],
 "data": [
  ["O=[N+]([O-])c1ccc2oc(=Nc3ccccc3)c(Nc3ccccc3)nc2c1", "> 100 µM"],
  ["NC(=O)c1cc(N(CCO)CCO)c([N+](=O)[O-])cc1[N+](=O)[O-]", "> 100 µM"],
  ["COC(=O)C(CCC(=O)CCl)N1C(=O)c2ccccc2C1=O (stereo not given)", "23.9 µM"],
  ["O=S(=O)(c1ccc(-c2nnc(-c3ccc(F)cc3)o2)cc1)c1ccc(-c2nnc(-c3ccc(F)cc3)o2)cc1", "> 100 µM"]
]}

Okay, now this molecule:
Lookup result for COC(=O)C(=O)C(C(=O)C(=O)Nc1cccc([N+](=O)[O-])c1)c1nc2ccc(Cl)cc2[nH]c1=O (stereo not given) ; measured TGI: > 100 µM
